Molecular target: Kappa-type opioid receptor (Homo sapiens); also: assay procedure not described here
Sequence (P41145 whole entry): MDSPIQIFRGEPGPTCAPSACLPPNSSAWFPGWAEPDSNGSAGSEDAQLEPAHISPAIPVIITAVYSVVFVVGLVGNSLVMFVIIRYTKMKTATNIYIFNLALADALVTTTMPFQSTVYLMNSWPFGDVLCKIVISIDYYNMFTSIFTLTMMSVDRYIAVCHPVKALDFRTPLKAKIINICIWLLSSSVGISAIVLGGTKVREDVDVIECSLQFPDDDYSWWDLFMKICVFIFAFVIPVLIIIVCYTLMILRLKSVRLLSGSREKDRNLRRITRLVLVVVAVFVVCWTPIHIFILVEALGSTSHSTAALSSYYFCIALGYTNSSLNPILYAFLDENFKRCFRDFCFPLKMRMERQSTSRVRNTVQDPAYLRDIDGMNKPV

[
  {
    "COMPOUND": "CCOC(=O)OC(C)OC1=C(C(=O)Nc2ccccn2)N(C)S(=O)(=O)c2ccccc21 (stereo unspecified)",
    "AC50": "> 30 µM"
  },
  {
    "COMPOUND": "CCCC(C)C1(CC)C(=O)NC(=O)NC1=O (stereo unspecified)",
    "AC50": "> 10 µM"
  },
  {
    "COMPOUND": "CC1=C(C(=O)O)N2C(=O)[C@@H](NC(=O)[C@H](N)c3ccccc3)[C@H]2SC1 [CEPHALEXIN ANHYDROUS]",
    "AC50": "> 10 µM"
  },
  {
    "COMPOUND": "CC(C)(C)c1cc(C(C)(C)C)c(NC(=O)c2c[nH]c3ccccc3c2=O)cc1O",
    "AC50": "> 10 µM"
  },
  {
    "COMPOUND": "Cc1ccc(S(=O)(=O)NC(=O)NN2CC3CCCC3C2)cc1 (stereo unspecified) [GLICLAZIDE]",
    "AC50": "> 10 µM"
  },
  {
    "COMPOUND": "COc1ccccc1N1CCN(CCCNc2cc(=O)n(C)c(=O)n2C)CC1",
    "AC50": "> 30 µM"
  },
  {
    "COMPOUND": "Cc1cn([C@H]2C=C[C@@H](CO)O2)c(=O)[nH]c1=O",
    "AC50": "> 10 µM"
  },
  {
    "COMPOUND": "C=CCc1ccccc1OCC(O)CNC(C)C (stereo unspecified)",
    "AC50": "> 30 µM"
  },
  {
    "COMPOUND": "COc1ccc(C(=O)Nc2ccccc2CCC2CCCCN2C)cc1 (stereo unspecified) [ENCAINIDE]",
    "AC50": "3.6 µM"
  },
  {
    "COMPOUND": "CCCC(=O)O[C@]1(C(=O)CO)CC[C@H]2[C@@H]3CCC4=CC(=O)CC[C@]4(C)[C@H]3[C@@H](O)C[C@@]21C [HYDROCORTISONE BUTYRATE]",
    "AC50": "> 10 µM"
  },
  {
    "COMPOUND": "N#Cc1ccc([C@H]2CCc3cncn32)c(F)c1",
    "AC50": "> 10 µM"
  },
  {
    "COMPOUND": "CC(=O)NCCCS(=O)(=O)O [ACAMPROSATE]",
    "AC50": "> 30 µM"
  },
  {
    "COMPOUND": "CO[C@H]1C[C@@H]2CC[C@@H](C)[C@@](O)(O2)C(=O)C(=O)N2CCCC[C@H]2C(=O)O[C@H]([C@H](C)C[C@@H]2CC[C@@H](O)[C@H](OC)C2)CC(=O)[C@H](C)/C=C(\\C)[C@@H](O)[C@@H](OC)C(=O)[C@H](C)C[C@H](C)/C=C/C=C/C=C/1C",
    "AC50": "> 10 µM"
  },
  {
    "COMPOUND": "C[C@H]1COc2c(C3(N)CC3)c(F)cc3c(=O)c(C(=O)O)cn1c23",
    "AC50": "> 10 µM"
  },
  {
    "COMPOUND": "C#C[C@]1(O)CC[C@H]2[C@@H]3CCc4cc(OC5CCCC5)ccc4[C@H]3CC[C@@]21C",
    "AC50": "> 10 µM"
  },
  {
    "COMPOUND": "Cc1oc(=O)oc1CN1CCN(c2cc3c(cc2F)c(=O)c(C(=O)O)c2n3C(C)S2)CC1 (stereo unspecified)",
    "AC50": "> 30 µM"
  }
]

All values here come from ChEMBL document CHEMBL5291721.
